tested on: RAW264.7; experiment: Cytotoxicity against mouse RAW264.7 cells by MTT assay; type: cell-based
quantity: IC50

Readout IC50 for COc1cc(Cl)cc(-c2nn(-c3cccc(NC(=O)Nc4cc(C(F)(F)F)cc(C(F)(F)F)c4)c3)cc2-c2ccncc2)c1 , test system RAW264.7, was > 100 µM

---

Give CC50 for every item shown.
tested on: UO-31; assay: Growth inhibition of human UO31 cells incubated for 48 hrs by sulforhodamine B assay; format: functional, cell-based; conditions: UO-31, 48 h, read-out: LC50 (the source's name)

Here is how some molecules turned out for CC50.
compound_smiles=O=C(Nc1cccc(-n2cc(-c3ccncc3)c(-c3cc(O)cc(Cl)c3)n2)c1)c1ccc(N2CCOCC2)c(C(F)(F)F)c1 quantity=CC50 experimental_value="> 100 µM"
compound_smiles=O=C(Nc1cccc(-n2cc(-c3ccncc3)c(-c3cc(O)cc(Cl)c3)n2)c1)Nc1ccc(Cl)c(C(F)(F)F)c1 quantity=CC50 experimental_value="34.7 µM"
compound_smiles=O=C(Nc1cccc(-n2cc(-c3ccncc3)c(-c3cc(O)cc(Cl)c3)n2)c1)Nc1ccc(Cl)c(Cl)c1 quantity=CC50 experimental_value="> 100 µM"

Each of the following entries comes with a recorded value; kindly state CC50 for each.
1. COc1cc(Cl)cc(-c2nn(-c3cccc(NC(=O)c4cccc(C(F)(F)F)c4)c3)cc2-c2ccncc2)c1
2. COc1cc(Cl)cc(-c2nn(-c3cccc(NC(=O)Nc4ccc(Cl)c(Cl)c4)c3)cc2-c2ccncc2)c1
3. COc1cc(Cl)cc(-c2nn(-c3cccc(NC(=O)Nc4ccc(Cl)c(C(F)(F)F)c4)c3)cc2-c2ccncc2)c1

> 100 µM
> 100 µM
95.4 µM

---

tested on: ACHN; assay: Growth inhibition of human ACHN cells assessed as cell growth at 0.1 uM incubated for 48 hrs by sulforhodamine B assay relative to control; assay type: functional; settings: read-out: Activity
quantity: growth at 0.1 µM (%)
Answers are plain numbers, in %.

Some solved cases for reference:
compound_smiles=O=C(Nc1cccc(-n2cc(-c3ccncc3)c(-c3cc(O)cc(Cl)c3)n2)c1)c1ccc(N2CCOCC2)c(C(F)(F)F)c1 system_tested=ACHN experimental_value=99
compound_smiles=COc1cc(Cl)cc(-c2nn(-c3cccc(NC(=O)c4cccc(C(F)(F)F)c4)c3)cc2-c2ccncc2)c1 system_tested=ACHN experimental_value=98
compound_smiles=COc1cc(Cl)cc(-c2nn(-c3cccc(NC(=O)Nc4ccc(Cl)c(Cl)c4)c3)cc2-c2ccncc2)c1 system_tested=ACHN experimental_value=96
compound_smiles=O=C(Nc1cccc(-n2cc(-c3ccncc3)c(-c3cc(O)cc(Cl)c3)n2)c1)Nc1ccc(Cl)c(Cl)c1 system_tested=ACHN experimental_value=95
compound_smiles=COc1cc(Cl)cc(-c2nn(-c3cccc(NC(=O)Nc4cccc(C(F)(F)F)c4)c3)cc2-c2ccncc2)c1 system_tested=ACHN experimental_value=92

Provide reported growth at 0.1 µM for each item, in the same order as listed.
1. COc1cc(Cl)cc(-c2nn(-c3cccc(NC(=O)Nc4ccc(Cl)c(C(F)(F)F)c4)c3)cc2-c2ccncc2)c1
2. COc1cc(Cl)cc(-c2nn(-c3cccc(NC(=O)c4ccc(N5CCOCC5)c(C(F)(F)F)c4)c3)cc2-c2ccncc2)c1

57
91

---

system: RXF 393; test: Growth inhibition of human RXF393 cells assessed as cell growth at 0.1 uM incubated for 48 hrs by sulforhodamine B assay relative to control; assay type: functional; settings: RXF 393, 48 h, read-out: Activity
quantity: growth at 0.1 µM (%)
Numbers only, in %.

compound_smiles=O=C(Nc1cccc(-n2cc(-c3ccncc3)c(-c3cc(O)cc(Cl)c3)n2)c1)Nc1ccc(Cl)c(C(F)(F)F)c1 experimental_value=95
compound_smiles=COc1cc(Cl)cc(-c2nn(-c3cccc(NC(=O)c4ccc(N5CCOCC5)c(C(F)(F)F)c4)c3)cc2-c2ccncc2)c1 experimental_value=100
compound_smiles=COc1cc(Cl)cc(-c2nn(-c3cccc(NC(=O)Nc4cc(C(F)(F)F)cc(C(F)(F)F)c4)c3)cc2-c2ccncc2)c1 experimental_value=101

The molecule COc1cc(Cl)cc(-c2nn(-c3cccc(NC(=O)c4cccc(C(F)(F)F)c4)c3)cc2-c2ccncc2)c1 on RXF 393: growth at 0.1 µM was 65

---

system: M14; assay: Growth inhibition of human M14 cells incubated for 48 hrs by sulforhodamine B assay; format: functional, cell-based; settings: M14, 48 h
quantity: pIC50
Numbers only, as −log10 of the molar value.

pIC50 measured on CNC(=O)c1cc(Oc2ccc(NC(=O)Nc3ccc(Cl)c(C(F)(F)F)c3)cc2)ccn1 [SORAFENIB] = 5.70

---

tested on: CCRF-CEM; assay: Growth inhibition of human CCRF-CEM cells assessed as cell growth at 0.01 uM incubated for 48 hrs by sulforhodamine B assay relative to control; type: functional; details: read-out: Activity
Record form. Attribute: growth at 0.01 µM. Fill in for each entry.
One number for each entry, in %.

Here's what some known entries look like.
compound_smiles=COc1cc(Cl)cc(-c2nn(-c3cccc(NC(=O)Nc4cccc(C(F)(F)F)c4)c3)cc2-c2ccncc2)c1 quantity="growth at 0.01 µM" unit_label=% experimental_value=98
compound_smiles=COc1cc(Cl)cc(-c2nn(-c3cccc(NC(=O)c4ccc(N5CCOCC5)c(C(F)(F)F)c4)c3)cc2-c2ccncc2)c1 quantity="growth at 0.01 µM" unit_label=% experimental_value=96
compound_smiles=COc1cc(Cl)cc(-c2nn(-c3cccc(NC(=O)c4cccc(C(F)(F)F)c4)c3)cc2-c2ccncc2)c1 quantity="growth at 0.01 µM" unit_label=% experimental_value=96
compound_smiles=O=C(Nc1cccc(-n2cc(-c3ccncc3)c(-c3cc(O)cc(Cl)c3)n2)c1)Nc1ccc(Cl)c(C(F)(F)F)c1 quantity="growth at 0.01 µM" unit_label=% experimental_value=97

Now take the following compound into account.
Entry O=C(Nc1cccc(-n2cc(-c3ccncc3)c(-c3cc(O)cc(Cl)c3)n2)c1)c1cc(C(F)(F)F)cc(C(F)(F)F)c1 — recorded growth at 0.01 µM = 96

---

Exercise: state measured growth at 0.1 µM for each of the molecules provided.
system: KM12; test: Growth inhibition of human KM12 cells assessed as cell growth at 0.1 uM incubated for 48 hrs by sulforhodamine B assay relative to control; format: functional; settings: KM12, 48 h, read-out: Activity
Give bare numbers, in %.

compound_smiles=O=C(Nc1cccc(-n2cc(-c3ccncc3)c(-c3cc(O)cc(Cl)c3)n2)c1)Nc1ccc(Cl)c(Cl)c1 quantity="growth at 0.1 µM" experimental_value=100
compound_smiles=COc1cc(Cl)cc(-c2nn(-c3cccc(NC(=O)c4cccc(C(F)(F)F)c4)c3)cc2-c2ccncc2)c1 quantity="growth at 0.1 µM" experimental_value=111
compound_smiles=COc1cc(Cl)cc(-c2nn(-c3cccc(NC(=O)Nc4ccc(Cl)c(Cl)c4)c3)cc2-c2ccncc2)c1 quantity="growth at 0.1 µM" experimental_value=92

Continue with the molecule presented below.
# COc1cc(Cl)cc(-c2nn(-c3cccc(NC(=O)Nc4cccc(C(F)(F)F)c4)c3)cc2-c2ccncc2)c1 with KM12: growth at 0.1 µM is 95

---

test system: TK-10; assay: Growth inhibition of human TK10 cells assessed as cell growth at 10 uM incubated for 48 hrs by sulforhodamine B assay relative to control; type: functional; conditions: TK-10, 48 h, read-out: Activity
quantity: growth at 10 µM (%)
Give bare numbers, in %.

Some solved cases for reference:
compound_smiles=COc1cc(Cl)cc(-c2nn(-c3cccc(NC(=O)c4ccc(Cl)c(Cl)c4)c3)cc2-c2ccncc2)c1 experimental_value=104
compound_smiles=COc1cc(Cl)cc(-c2nn(-c3cccc(NC(=O)Nc4cccc(C(F)(F)F)c4)c3)cc2-c2ccncc2)c1 experimental_value=23.4
compound_smiles=O=C(Nc1cccc(-n2cc(-c3ccncc3)c(-c3cc(O)cc(Cl)c3)n2)c1)c1cc(C(F)(F)F)cc(C(F)(F)F)c1 experimental_value=73

// next item, growth at 10 µM requested
molecule COc1cc(Cl)cc(-c2nn(-c3cccc(NC(=O)c4cccc(C(F)(F)F)c4)c3)cc2-c2ccncc2)c1 , growth at 10 µM observed: 72.7

---

test system: NCI/ADR-RES; test: Growth inhibition of human NCI/ADR-RES cells incubated for 48 hrs by sulforhodamine B assay; type: functional, cell-based
quantity: IC50

Quick note, IC50 for COc1cc(Cl)cc(-c2nn(-c3cccc(NC(=O)Nc4cc(C(F)(F)F)cc(C(F)(F)F)c4)c3)cc2-c2ccncc2)c1 landed at 820 nM

---

tested on: CCRF-CEM; test: Growth inhibition of human CCRF-CEM cells assessed as cell growth at 10 uM incubated for 48 hrs by sulforhodamine B assay relative to control; format: functional; settings: read-out: Activity
Please go through the items and note down their growth at 10 µM.
Give bare numbers, in %.

Use the examples below as a reference point.
compound_smiles=COc1cc(Cl)cc(-c2nn(-c3cccc(NC(=O)c4cc(C(F)(F)F)cc(C(F)(F)F)c4)c3)cc2-c2ccncc2)c1 system_tested=CCRF-CEM experimental_value=57.1
compound_smiles=COc1cc(Cl)cc(-c2nn(-c3cccc(NC(=O)Nc4ccc(Cl)c(Cl)c4)c3)cc2-c2ccncc2)c1 system_tested=CCRF-CEM experimental_value=5.73
compound_smiles=COc1cc(Cl)cc(-c2nn(-c3cccc(NC(=O)c4ccc(N5CCOCC5)c(C(F)(F)F)c4)c3)cc2-c2ccncc2)c1 system_tested=CCRF-CEM experimental_value=31.7

Batch: growth at 10 µM for all items listed.
1. O=C(Nc1cccc(-n2cc(-c3ccncc3)c(-c3cc(O)cc(Cl)c3)n2)c1)Nc1ccc(Cl)c(C(F)(F)F)c1
2. O=C(Nc1cccc(-n2cc(-c3ccncc3)c(-c3cc(O)cc(Cl)c3)n2)c1)c1cc(C(F)(F)F)cc(C(F)(F)F)c1

1. 9.31
2. 26.9
